Tested on: TK-10 renal
EXPERIMENT SUMMARY: NCI tumour cell line growth inhibition, 48 h
Reported values of TGI for individual entries
MEASURED ENDPOINT: TGI (µM)

• CC(C)(C)CC(C)(C)c1ccc(OCCOCC[N+](C)(C)Cc2ccccc2)cc1 = 17.3
• CC/C(Cl)=N\OC(=O)Nc1ccc(F)cc1F = 24.3
• COc1ccc(/C=C/C(=O)C(C)(C)Br)cc1 = 29.7
• CC(=O)O[C@H]1C(=O)N(c2cc3c4ccccc4ccc3c3ccccc23)[C@@H]1c1ccccc1 = 47.1

###

Test system: SK-MEL-28 melanoma
EXPERIMENT SUMMARY: NCI tumour cell line growth inhibition, 48 h
MEASURED ENDPOINT: GI50

• COc1ccc2[nH]c(-c3ccccc3)cc2c1 = > 100 µM
• CN(C)CCCC1(c2ccc(F)cc2)OCc2cc(-c3cncc4ccccc34)ccc21 (configuration not stated) = 1.75 µM
• COc1ccc(/C=C(/C(=O)n2cnnn2)c2cc(OC)c(OC)c(OC)c2)cc1 = 7.37 µM
• CCC(=O)c1cc([N+](=O)[O-])c(Br)s1 = 4.17 µM
• Cn1cc(CO)c2ccccc21 = 85.9 µM
• COc1ccc(C(=O)C[C@]2(O)C(=O)Nc3c(Cl)ccc(Cl)c32)cc1 = 6.54 µM
• C=C(CNCCc1ccc(O)cc1)[C@@H]1CC[C@]2(CO)CC[C@]3(C)[C@H](CC[C@@H]4[C@@]5(C)CCC(N)C(C)(C)[C@@H]5CC[C@]43C)[C@@H]12 (some centres not stated) = 1.76 µM

###

Test system: LXFL 529 NSCLC
EXPERIMENT SUMMARY: NCI tumour cell line growth inhibition, 48 h
The reader will find reported TGI values listed item by item below.
MEASURED ENDPOINT: TGI

- Cc1cc([N+](=O)[O-])c(S(=O)(=O)c2ccccc2)c([N+](=O)[O-])c1: 10.6 µM
- NC(=O)c1c[se]c(C2OC(COP(=O)(O)CP(=O)(O)OCC3OC(n4cnc5c(N)ncnc54)C(O)C3O)C(O)C2O)n1 (centres undefined): > 100 µM
- CC1(C)OC(COCCOCCCCCO)C(COCCOCCCCCO)O1 (centres undefined): > 100 µM
- CC[P+]1(CC)CCCC1: > 100 µM
- CC1(C)CC(=O)c2c(oc3cc(O)c(O)cc23)C1: 91.8 µM
- C/C(=N\Nc1ccccc1)C(CN(C)C)C(c1ccccc1)c1c(O)c2ccccc2oc1=O (centres undefined): > 100 µM
- NC(=O)C(=O)n1ncc(Cl)c(Cl)c1=O: 29 µM
- CC(C)(C)c1cc(CCC(=O)Nc2ccc(Cl)cc2Cl)nc(N)n1: > 100 µM
- CC(=O)OCCC(O[Si](c1ccccc1)(c1ccccc1)C(C)(C)C)C(C)(C)O (centres undefined): > 100 µM
- O=C(O)[C@@H]1CCCC[C@@H]1C(=O)N(C1CCCCC1)C1CCCCC1: > 100 µM
- C[N+](C)=c1nc(N2CCOCC2)ss1: > 100 µM
- COC(=O)n1c(C[P+](c2ccccc2)(c2ccccc2)c2ccccc2)cc2ccccc21: 3.73 µM
- CCN(CC)CCCCC1CCN(CC(=O)N2c3ccccc3NC(=O)CC2C)CC1 (centres undefined): > 100 µM
- COC(=O)CC(NC(=O)OCc1ccccc1)C(C(=O)OCc1ccccc1)C1(C)OCCO1 (centres undefined): 73 µM

###

Test system: U251 CNS
EXPERIMENT SUMMARY: NCI tumour cell line growth inhibition, 48 h
MEASURED ENDPOINT: TGI (µM)

* CC1=C2C(=O)c3ccccc3C(=O)[C@H]2C[C@@H](N2CCCCCC2=O)O1 | 50.6
* Cc1cc([N+](=O)[O-])c(S(=O)(=O)c2ccccc2)c([N+](=O)[O-])c1 | 26.6

###

Listing of recorded GI50 by entry.
Test system: SNB-19 CNS
EXPERIMENT SUMMARY: NCI tumour cell line growth inhibition, 48 h
MEASURED ENDPOINT: GI50

- COc1ccc(-c2nc3c(c(=O)n2C(C)=O)C(c2ccc(Cl)cc2)c2sc4c(Cl)cccc4c2O3)cc1 (stereo unspecified): 0.413 µM
- COc1ccc(C(=O)C[C@]2(O)C(=O)Nc3c(Cl)ccc(Cl)c32)cc1: 1.05 µM
- O=C(/C=C/c1cn(-c2ccccc2)nc1-c1ccc([N+](=O)[O-])cc1)c1ccc(Cl)cc1: 4.12 µM
- COc1cc2nnn3c4ncccc4c(N=O)c3c2cc1OC: 9.75 µM
- COc1cc2cc(Oc3ccc(NC(=O)c4cccc5c4OCCO5)cc3)c(C)nc2cc1OC: 15.5 µM
- COc1cc(-n2cc(-c3cc(O)c(C/C=C(\C)CCC=C(C)C)c(O)c3)nn2)cc2c1O[C@]1(C)CC[C@@H](O)C(C)(C)[C@H]1C2: 1.89 µM

###

System: HS 578T breast
EXPERIMENT SUMMARY: NCI tumour cell line growth inhibition, 48 h
The entries below are paired with their reported GI50.
MEASURED ENDPOINT: GI50

* CC(C)(CO)N=Cc1ccccc1[O-].CC(C)(CO)N=Cc1ccccc1[O-].[Co+2] | > 100 µM
* Cn1cnc([N+](=O)[O-])c1Sc1nc(N)nc2nc[nH]c12 | 14.5 µM
* Cn1cc(CO)c2ccccc21 | 38.5 µM
* O=C(Nc1ccc(Cl)cc1)Nc1ccccc1CNc1nc(Nc2ccc(OCCN3CCCC3)cc2)ncc1Cl | 7.02 µM
* CCN(CC)CCOc1ccc(/C=C2\CC3C4CC=C5C[C@@H](OC(C)=O)CC[C@]5(C)C4CC[C@]3(C)C2=O)cc1OC (stereo not given in full) | 7.77 µM

###

Entries and their TGI values follow.
System: A549 NSCLC
EXPERIMENT SUMMARY: NCI tumour cell line growth inhibition, 48 h
MEASURED ENDPOINT: TGI

- Cc1cc(NC(=O)NC(=O)c2ccccc2N(C)C)ccc1Oc1ncc(Br)cn1: > 63.1 µM
- C/C(=N/O)c1ccc2c(c1)C(=NO)c1cc(/C(C)=N/O)ccc1-2: 68.6 µM
- CC(=O)Oc1ccc(C2(c3ccc(OC(C)=O)cc3)C(=O)Nc3ccccc32)cc1: > 100 µM
- COC(=O)n1c(C[P+](c2ccccc2)(c2ccccc2)c2ccccc2)cc2ccccc21: 12.4 µM
- CC[C@@]1(O)C(=O)OCc2c1cc1n(c2=O)Cc2cc3c(N)cccc3nc2-1: 2.31 µM

###

Tested on: BT-549 breast
EXPERIMENT SUMMARY: NCI tumour cell line growth inhibition, 48 h
Entries and their GI50
MEASURED ENDPOINT: GI50

• CN(C)CCCC1(c2ccc(F)cc2)OCc2cc(-c3cncc4ccccc34)ccc21 (stereo not drawn) = 7.45 µM
• CC[C@@]1(O)C(=O)OCc2c1cc1n(c2=O)Cc2cc3c(N)cccc3nc2-1 = 0.0394 µM
• CCOCNc1ccc(N2C(=O)/C(=C/c3ccc(N(CC)CC)cc3)N=C2c2ccccc2)cc1 = 33.5 µM
• c1cnc2[nH]cc(-c3csc(-c4cn(CCCN5CCCCC5)c5ccccc45)n3)c2c1 = 1.68 µM
• COc1ccc(-c2cc(/C=C/C(=O)c3cc(OC)c(OC)c(OC)c3)[nH]n2)cc1OC = 1.36 µM
• O=C(O)C1C(C(=O)O)C2(Cl)C(Cl)=C(Cl)C1(Cl)C2(Cl)Cl.[Cd] (stereo not drawn) = 1.33 µM
• COc1ccc2c(c1)nc1n2C(c2ccc(F)cc2)SC1 (stereo not drawn) = 17.1 µM
• Cc1ccc(-n2c3c(c4c(CN5CCOCC5)c(O)ccc42)CCc2ccccc2C3=O)cc1 = 33.8 µM

###

Tested on: KM12 colon
EXPERIMENT SUMMARY: NCI tumour cell line growth inhibition, 48 h
# Lookup of reported TGI keyed by entry
MEASURED ENDPOINT: TGI

- C[N+](C)=c1nc(N2CCOCC2)ss1: > 100 µM
- COC(=O)c1cc2c3c(ccc2[nH]1)N(C(=O)c1cc2c4c(ccc2[nH]1)N(C(=O)c1cc2c5c(ccc2[nH]1)N(C(N)=O)CC5)CC4)CC3: > 100 µM
- O=C1CSC2(CC(/C=C/c3ccccc3Br)=NN2c2cccc(S(=O)(=O)O)c2)N1c1nc2ccccc2s1 (stereo not drawn): > 100 µM
- CC[C@H](C)[C@H](NC(=O)[C@H]1CCCCN1C)C(=O)N(C)[C@H](C[C@@H](OC(C)=O)c1nc(C(=O)N[C@@H](Cc2ccccc2)C[C@H](C)C(=O)OC)cs1)C(C)C: > 25 µM
- Cc1cc([N+](=O)[O-])c(S(=O)(=O)c2ccccc2)c([N+](=O)[O-])c1: 32.1 µM
- O=[N+]([O-])/C=C/c1cn(CCCCCn2cc(/C=C/[N+](=O)[O-])c3ccccc32)c2ccccc12: 3.94 µM
- CCCCCCOP(=O)(OCCCCCC)OC(C(=O)OC)C(F)(F)F (stereo not drawn): > 100 µM
- CC1=C2NCN(C)N=C2C(C#N)(C#N)C1(C#N)C#N: > 100 µM
